# experimental-system: Rat recombinant PDE10a (rPDE10a) (Rattus norvegicus (Rat))
# Sequence (Q9QYJ6 whole entry): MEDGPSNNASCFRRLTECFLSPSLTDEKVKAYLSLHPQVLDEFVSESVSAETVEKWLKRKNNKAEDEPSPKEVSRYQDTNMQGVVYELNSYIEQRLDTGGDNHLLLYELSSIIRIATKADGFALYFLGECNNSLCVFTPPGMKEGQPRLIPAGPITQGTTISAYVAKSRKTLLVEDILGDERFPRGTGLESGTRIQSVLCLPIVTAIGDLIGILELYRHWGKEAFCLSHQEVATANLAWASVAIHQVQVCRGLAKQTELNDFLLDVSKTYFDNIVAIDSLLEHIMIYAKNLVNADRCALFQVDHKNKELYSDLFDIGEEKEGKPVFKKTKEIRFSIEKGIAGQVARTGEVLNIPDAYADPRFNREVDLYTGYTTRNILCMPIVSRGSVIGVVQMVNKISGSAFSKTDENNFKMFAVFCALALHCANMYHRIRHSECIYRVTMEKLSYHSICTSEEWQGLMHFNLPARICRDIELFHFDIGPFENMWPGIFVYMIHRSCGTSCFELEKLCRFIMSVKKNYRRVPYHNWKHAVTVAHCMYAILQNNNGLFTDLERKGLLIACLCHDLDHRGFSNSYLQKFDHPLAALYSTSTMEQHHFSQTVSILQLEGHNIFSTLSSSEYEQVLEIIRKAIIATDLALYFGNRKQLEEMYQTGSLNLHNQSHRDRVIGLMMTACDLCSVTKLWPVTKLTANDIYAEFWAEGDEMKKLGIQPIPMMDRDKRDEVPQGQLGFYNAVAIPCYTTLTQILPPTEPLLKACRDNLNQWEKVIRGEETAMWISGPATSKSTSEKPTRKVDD
# assay-text: In vitro assay PDE10a (rat recombinant PDE10a, SPA)
# Assay type: biochemical
# test-conditions: 60 nM cAMP, 60 min at rt, read-out: rPDE10a2 IC50
Where a name gives a salt, the structure may show the parent alone.
readout: IC50 (µM)

Example molecules with recorded IC50:
- molecule: "Oc1ncn(-c2ccc(-c3cnc(N4CCOCC4)c4nc(CCc5ccc6ccccc6n5)cn34)cc2)n1"
  IC50, µM: 0.005
- molecule: "C(=C\\c1ncccn1)/c1cn2c(-c3ccc(N4CCNCC4)nc3)cnc(N3CCOCC3)c2n1"
  IC50, µM: 0.617
- molecule: "O=C(O)[C@@H]1CCCN1C(=O)c1ccc(-c2cnc(N3CCOCC3)c3nc(/C=C/c4ccc5ccccc5n4)cn23)cc1 [Cpd 45, trifluoroacetic acid salt]"
  IC50, µM: 0.023

[A] Cc1ccc(-c2cnc(N3CCOCC3)c3nc(COc4ccc5ccccc5n4)cn23)cn1
[B] OC(c1ccc(-c2cnc(N3CCOCC3)c3nc(/C=C/c4ccc5ccccc5n4)cn23)cc1)(C(F)(F)F)C(F)(F)F
Task: // which entry has the larger IC50 value, A or B ? Write down the label attached to your selection.
Output: A
(A: 0.031 µM, B: 0.02 µM)

---

# experimental-system: Rat recombinant PDE10a (rPDE10a) (Rattus norvegicus (Rat))
# assay-text: In vitro assay PDE10a (rat recombinant PDE10a, SPA)
# test-conditions: 60 nM cAMP, 60 min at rt, read-out: rPDE10a2 IC50
Structures can show the parent of a compound that is named as a salt.
readout: IC50 (nM)

Example molecules with recorded IC50:
- molecule: "COCCOCCOc1ccc(-c2cnc(N3CCOCC3)c3nc(/C=C/c4ccc5ccccc5n4)cn23)cc1 [Cpd 18]"
  experimental-system: "Rat recombinant PDE10a (rPDE10a) (Rattus norvegicus (Rat))"
  IC50, nM: 102
- molecule: "NC(=O)c1ccc(-c2cnc(N3CCOCC3)c3nc(COc4ccc5ccccc5n4)cn23)cn1 [Cpd 84]"
  experimental-system: "Rat recombinant PDE10a (rPDE10a) (Rattus norvegicus (Rat))"
  IC50, nM: 8
- molecule: "CS(=O)(=O)NC(=O)Nc1ccc(-c2cnc(N3CCOCC3)c3nc(CCc4ccc5ccccc5n4)cn23)cc1 [Cpd 40]"
  experimental-system: "Rat recombinant PDE10a (rPDE10a) (Rattus norvegicus (Rat))"
  IC50, nM: 20

[1] C(=C\c1cn2c(-c3ccc(-c4nnc[nH]4)nc3)cnc(N3CCOCC3)c2n1)/c1ccc2ccccc2n1 [Cpd 91]
[2] O=C1NS(=O)(=O)c2cc(-c3cnc(N4CCOCC4)c4nc(CCc5ccc6ccccc6n5)cn34)ccc21 [Cpd 54, trifluoroacetic acid salt]
[3] O=c1[nH]ncn1-c1ccc(-c2cnc(N3CCOCC3)c3nc(CCc4ccc5ccccc5n4)cn23)cc1 [Cpd 65]
Task: Ranking field: IC50; order: falling. Field: ranking. Enter the labels in the order requested.
Output: 3, 1, 2
(3: 60 nM, 1: 3 nM, 2: 1 nM)

---

# assay-text: PDE10a-perfused brain permeability study (plasma and brain concentrations)
# test-conditions: male, Sprague-Dawley, rat, brain
Counter-ions that a name gives are not always drawn.
readout: concentration at 2 h (ng/g)

Example molecules with recorded concentration at 2 h:
- molecule: "O=C(O)CNc1ccc(-c2cnc(N3CCOCC3)c3nc(COc4ccc5ccccc5n4)cn23)cn1 [Cpd 107, trifluoroacetic acid salt]"
  endpoint-unit: "ng/g"
  reported: 0
- molecule: "O=C(O)CN1CCC(c2cnc(N3CCOCC3)c3nc(COc4ccc5ccccc5n4)cn23)CC1 [Cpd 110, trifluoroacetic acid salt]"
  endpoint-unit: "ng/g"
  reported: 0
- molecule: "O=C(Nc1cn2c(-c3ccc(N4CCNCC4)nc3)cnc(N3CCOCC3)c2n1)c1ccc2ccccc2n1"
  endpoint-unit: "ng/g"
  reported: 54.9
- molecule: "Nc1ccc(-c2cnc(N3CCOCC3)c3nc(COc4ccc5ccccc5n4)cn23)cn1"
  endpoint-unit: "ng/g"
  reported: 98.2
- molecule: "c1ccc2nc(OCc3cn4c(-c5cnc(N6CCNCC6)nc5)cnc(N5CCOCC5)c4n3)ccc2c1"
  endpoint-unit: "ng/g"
  reported: 81.5

[I] c1ccc2nc(OCc3cn4c(-c5ccc(Sc6cnn[nH]6)nc5)cnc(N5CCOCC5)c4n3)ccc2c1
[II] C(=C\c1cn2c(-c3cnc4nc[nH]c4c3)cnc(N3CCOCC3)c2n1)/c1ccc2ccccc2n1
[III] c1ccc2nc(OCc3cn4c(-c5ccc(N6CCNCC6)nc5)cnc(N5CCOCC5)c4n3)ccc2c1
Task: Ranking field: concentration at 2 h; order: falling. Field: ranking. Enter the labels in the order requested.
Output: I, III, II
(I: 78.3 ng/g, III: 49.3 ng/g, II: 0 ng/g)

---

# experimental-system: Human recombinant PDE10A2 (Homo sapiens (Human))
# Sequence (Q9Y233 267-1055): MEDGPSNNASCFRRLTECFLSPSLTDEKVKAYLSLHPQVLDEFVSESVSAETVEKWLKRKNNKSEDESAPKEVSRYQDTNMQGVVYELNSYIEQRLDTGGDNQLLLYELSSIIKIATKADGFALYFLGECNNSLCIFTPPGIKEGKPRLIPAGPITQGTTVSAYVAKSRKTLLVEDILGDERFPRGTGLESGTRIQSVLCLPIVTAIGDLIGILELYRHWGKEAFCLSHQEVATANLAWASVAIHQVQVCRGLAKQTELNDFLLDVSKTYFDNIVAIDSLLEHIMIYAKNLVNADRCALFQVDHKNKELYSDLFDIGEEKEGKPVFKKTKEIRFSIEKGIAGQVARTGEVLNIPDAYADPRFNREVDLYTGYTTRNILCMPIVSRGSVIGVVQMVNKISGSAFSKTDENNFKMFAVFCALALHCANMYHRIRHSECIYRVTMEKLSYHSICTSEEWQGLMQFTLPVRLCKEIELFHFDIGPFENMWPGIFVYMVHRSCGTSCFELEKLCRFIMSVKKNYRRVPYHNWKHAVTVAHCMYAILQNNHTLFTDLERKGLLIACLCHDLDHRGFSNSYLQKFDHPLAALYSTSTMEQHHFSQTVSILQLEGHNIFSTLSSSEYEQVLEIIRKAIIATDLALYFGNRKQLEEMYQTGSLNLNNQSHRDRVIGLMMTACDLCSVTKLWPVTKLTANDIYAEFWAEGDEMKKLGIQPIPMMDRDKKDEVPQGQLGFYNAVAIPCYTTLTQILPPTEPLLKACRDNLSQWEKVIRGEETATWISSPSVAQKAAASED
# assay-text: In vitro hPDE10a (human recombinant PDE10A2, scintillation proximity assay)
# test-conditions: human recombinant PDE10A2, 60 nM cAMP, 60 min at room temperature; read-out: hPDE10a2 IC50
Counter-ions that a name gives are not always drawn.
readout: IC50 (nM)

- compound: "O=C(O)CCNC(=O)c1ccc(-c2cnc(N3CCOCC3)c3nc(CCc4ccc5ccccc5n4)cn23)cc1"
  experimental-system: "Human recombinant PDE10A2 (Homo sapiens (Human))"
  endpoint-unit: "nM"
  IC50: 2
- compound: "OC1CCN(c2ncc(-c3ccc(N4CCNCC4)nc3)n3cc(COc4ccc5ccccc5n4)nc23)CC1 [Cpd 118, trifluoroacetic acid salt]"
  experimental-system: "Human recombinant PDE10A2 (Homo sapiens (Human))"
  endpoint-unit: "nM"
  IC50: 78
- compound: "O=C(Nc1cn2c(-c3ccc(N4CCNCC4)nc3)cnc(N3CCOCC3)c2n1)c1ccc2ccccc2n1"
  experimental-system: "Human recombinant PDE10A2 (Homo sapiens (Human))"
  endpoint-unit: "nM"
  IC50: 309

[P] O=C(O)[C@@H]1CCCN1C(=O)c1ccc(-c2cnc(N3CCOCC3)c3nc(/C=C/c4ccc5ccccc5n4)cn23)cc1 [Cpd 45, trifluoroacetic acid salt]
[Q] C(=C\c1cn2c(-c3ccc(-c4nnc[nH]4)nc3)cnc(N3CCOCC3)c2n1)/c1ccc2ccccc2n1
[R] O=C(O)c1ccc(-c2cnc(N3CCOCC3)c3nc(/C=C/c4ccc5ccccc5n4)cn23)cc1F
[S] O=C(O)Cn1cc(-c2cnc(N3CCOCC3)c3nc(C#Cc4ccc5ccccc5n4)cn23)cn1
Task: Ranking field: IC50; order: falling. Field: ranking. Enter the labels in the order requested.
Output: P, Q, R, S
(P: 20 nM, Q: 12 nM, R: 5 nM, S: 1 nM)

---

# assay-text: PDE10a-perfused brain permeability study (plasma and brain concentrations)
# test-conditions: male, Sprague-Dawley, rat, plasma
Structures can show the parent of a compound that is named as a salt.
readout: concentration at 2 h (ng/mL)

- compound: "O=c1[nH]c(-c2ccc(-c3cnc(N4CCOCC4)c4nc(CCc5ccc6ccccc6n5)cn34)cn2)no1 [Cpd 74]"
  endpoint-unit: "ng/mL"
  reported: 58
- compound: "C(=C\\c1cn2c(-c3ccc(-c4nnc[nH]4)nc3)cnc(N3CCOCC3)c2n1)/c1ccc2ccccc2n1 [Cpd 91]"
  endpoint-unit: "ng/mL"
  reported: 209
- compound: "NS(=O)(=O)N1CCC(c2cnc(N3CCOCC3)c3nc(COc4ccc5ccccc5n4)cn23)CC1 [Cpd 109, trifluoroacetic acid salt]"
  endpoint-unit: "ng/mL"
  reported: 226

[P] c1ccc2nc(OCc3cn4c(-c5ccc(N6CCNCC6)nc5)cnc(-c5ccc6nc[nH]c6c5)c4n3)ccc2c1 [Cpd 119, trifluoroacetic acid salt]
[Q] c1cncc(-c2cnc(N3CCOCC3)c3nc(COc4ccc5ccccc5n4)cn23)c1 [Cpd 129]
Task: // which entry has the larger concentration at 2 h value, P or Q ? Write down the label attached to your selection.
Output: P
(P: 53.8 ng/mL, Q: 11 ng/mL)

---

# experimental-system: Human recombinant PDE10A2 (Homo sapiens (Human))
# assay-text: In vitro hPDE10a (human recombinant PDE10A2, scintillation proximity assay)
# test-conditions: human recombinant PDE10A2, 60 nM cAMP, 60 min at room temperature; read-out: hPDE10a2 IC50
Where a name gives a salt, the structure may show the parent alone.
readout: IC50 (nM)

Example compounds with recorded IC50:
- compound: "O=c1[nH]cnn1-c1ccc(-c2cnc(N3CCOCC3)c3nc(CCc4ccc5ccccc5n4)cn23)cc1 [Cpd 21]"
  IC50 (nM): 25
- compound: "O=C(O)CCNc1ccc(-c2cnc(N3CCOCC3)c3nc(CCc4ccc5ccccc5n4)cn23)cc1 [Cpd 23, trifluoroacetic acid salt]"
  IC50 (nM): 8
- compound: "Oc1nc2ncc(-c3cnc(N4CCOCC4)c4nc(/C=C/c5ccc6ccccc6n5)cn34)cc2[nH]1 [Cpd 94]"
  IC50 (nM): 8

[a] CN1C(=O)N(C)S(=O)(=O)c2cc(-c3cnc(N4CCOCC4)c4nc(/C=C/c5ccc6ccccc6n5)cn34)ccc21 [Cpd 20]
[b] C(=C\c1cn2c(-c3cnc4nc[nH]c4c3)cnc(N3CCOCC3)c2n1)/c1ccc2ccccc2n1 [Cpd 93]
Task: // which entry has the larger IC50 value, a or b ? Write down the label attached to your selection.
Output: b

[I] C1=C(c2ccc(-c3cnc(N4CCOCC4)c4nc(COc5ccc6ccccc6n5)cn34)cn2)CCNC1 [Cpd 108]
[II] O=c1[nH]c(-c2ccc(-c3cnc(N4CCOCC4)c4nc(CCc5ccc6ccccc6n5)cn34)cn2)no1 [Cpd 74]
Task: // returns I or II , whichever has the lower IC50 Write down the label attached to your selection.
Output: II
